Values were extracted from patent US5972980A.

Molecular target: rabbit reticulocyte 15-LO (Oryctolagus cuniculus, UniProt P12530)
Construct: rabbit reticulocyte 15-LO; from tissue; host or cells: rabbit reticulocytes
Sequence (P12530 whole entry): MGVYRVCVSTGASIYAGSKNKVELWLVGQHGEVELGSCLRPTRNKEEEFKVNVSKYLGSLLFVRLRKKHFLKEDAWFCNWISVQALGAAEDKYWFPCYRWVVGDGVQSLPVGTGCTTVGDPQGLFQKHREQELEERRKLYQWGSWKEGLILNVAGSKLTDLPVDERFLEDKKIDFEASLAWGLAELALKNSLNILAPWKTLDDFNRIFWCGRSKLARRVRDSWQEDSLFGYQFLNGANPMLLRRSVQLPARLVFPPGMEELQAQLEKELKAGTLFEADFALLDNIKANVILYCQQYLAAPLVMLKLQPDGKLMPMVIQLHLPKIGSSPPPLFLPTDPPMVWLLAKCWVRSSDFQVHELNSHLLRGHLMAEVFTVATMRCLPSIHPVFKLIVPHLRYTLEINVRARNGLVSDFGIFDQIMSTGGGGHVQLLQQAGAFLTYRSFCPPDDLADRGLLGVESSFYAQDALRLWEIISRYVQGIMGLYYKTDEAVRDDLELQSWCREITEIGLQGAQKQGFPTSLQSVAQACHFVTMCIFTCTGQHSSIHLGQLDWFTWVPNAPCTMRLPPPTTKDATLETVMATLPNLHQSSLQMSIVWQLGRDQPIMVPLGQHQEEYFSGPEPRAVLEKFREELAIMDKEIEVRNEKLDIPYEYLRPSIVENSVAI
Assay: 15-LO inhibition, rabbit reticulocyte 15-LO with linoleic acid substrate, HPLC method of Auerbach et al.
Format: biochemical
Details: Table 3, styrenes; read-out: 15-LO IC50

- compound: "COc1ccc(/C=C/C(=O)c2cccs2)cc1 [drawing 31 (R2=H, R3=4-OCH3, Het=drawing 32)]"
  IC50 [nM]: 1600

###

Target: 5-LO enzyme (Homo sapiens, UniProt P09917)
Experiment: 5-LO enzyme inhibition
Assay type: biochemical
Settings: Table 3, styrenes; read-out: 5-LO IC50
pIC50: −log10 of the molar value.
observed-property: pIC50

- molecule: "COc1ccc(/C=C/C(=O)c2cccs2)cc1 [drawing 31 (R2=H, R3=4-OCH3, Het=drawing 32)]"
  test-result: "< 5.00"

###

Biological target: 5-LO enzyme (Homo sapiens, UniProt P09917)
Assay: 5-LO enzyme inhibition
Format: biochemical
Details: Table 1; read-out: 5-LO (concentration to inhibit 50% of 5-LO activity)
Listed next: entries and their corresponding IC50.
observed-property: IC50

- molecule: "c1ccc2c(c1)[nH]c1c3cc4c(cc3[s+]cc21)CCCC4"
  measurement-target: "5-LO enzyme (Homo sapiens, UniProt P09917)"
  test-result: "> 32 µM"
- molecule: "c1ccc2c(c1)SCc1c-2[nH]c2ccccc12"
  measurement-target: "5-LO enzyme (Homo sapiens, UniProt P09917)"
  test-result: "> 100 µM"
- molecule: "COc1ccc2[nH]c3c4ccccc4[s+]cc3c2c1"
  measurement-target: "5-LO enzyme (Homo sapiens, UniProt P09917)"
  test-result: "> 9.6 µM"
- molecule: "O=[N+]([O-])c1ccc2[s+]cc3c4ccccc4[nH]c3c2c1 [drawing 19 (R2=H, R3=H, R4=NO2, R5=H, R8=H)]"
  measurement-target: "5-LO enzyme (Homo sapiens, UniProt P09917)"
  test-result: "> 10 µM"
- molecule: "COc1ccc2[nH]c3c(c2c1)COc1ccccc1-3"
  measurement-target: "5-LO enzyme (Homo sapiens, UniProt P09917)"
  test-result: "> 50 µM"
- molecule: "c1ccc2c(c1)c[s+]c1c3ccccc3[nH]c21 [drawing 20 (R2=H, R3=H, R4=H, R5=H, R8=H)]"
  measurement-target: "5-LO enzyme (Homo sapiens, UniProt P09917)"
  test-result: "22 µM"
- molecule: "COc1ccc2c3c([nH]c2c1)-c1ccccc1SC3"
  measurement-target: "5-LO enzyme (Homo sapiens, UniProt P09917)"
  test-result: "> 50 µM"
- molecule: "COc1ccc2[nH]c3c(c2c1)CSc1ccccc1-3"
  measurement-target: "5-LO enzyme (Homo sapiens, UniProt P09917)"
  test-result: "> 10 µM"

###

Target: rabbit reticulocyte 15-LO (Oryctolagus cuniculus, UniProt P12530)
Construct: rabbit reticulocyte 15-LO; from tissue; host or cells: rabbit reticulocytes
Test: 15-LO inhibition, rabbit reticulocyte 15-LO with linoleic acid substrate, HPLC method of Auerbach et al.
Type: biochemical
Details: Table 1; HPLC method; read-out: 15-LO IC50
pIC50: −log10 of the molar value.
observed-property: pIC50

- compound: "O=[N+]([O-])c1ccc2[s+]cc3c4ccccc4[nH]c3c2c1 [drawing 19 (R2=H, R3=H, R4=NO2, R5=H, R8=H)]"
  observed-property: "pIC50"
  limit-qualifier: "="
  test-result: 6.32
- compound: "COc1ccc2[nH]c3c(c2c1)CCc1ccccc1-3"
  observed-property: "pIC50"
  limit-qualifier: "<"
  test-result: 4.60
- compound: "COc1ccc2[nH]c3c(c2c1)CSc1ccccc1-3"
  observed-property: "pIC50"
  limit-qualifier: "="
  test-result: 6.22
- compound: "Cc1[s+]c2ccccc2c2[nH]c3ccccc3c12 [drawing 19 (R2=H, R3=H, R4=H, R5=H, R8=CH3)]"
  observed-property: "pIC50"
  limit-qualifier: "<"
  test-result: 4.60
- compound: "c1ccc2c(c1)c[s+]c1c3ccccc3[nH]c21 [drawing 20 (R2=H, R3=H, R4=H, R5=H, R8=H)]"
  observed-property: "pIC50"
  limit-qualifier: "="
  test-result: 5.42
- compound: "COc1ccc2c3c([nH]c2c1)-c1ccccc1SC3"
  observed-property: "pIC50"
  limit-qualifier: "="
  test-result: 5.35
- compound: "COc1ccc2[nH]c3c4ccccc4ncc3c2c1"
  observed-property: "pIC50"
  limit-qualifier: "<"
  test-result: 4.60

###

Molecular target: rabbit reticulocyte 15-LO (Oryctolagus cuniculus)
Construct: rabbit reticulocyte 15-LO; from tissue; host or cells: rabbit reticulocytes
Test: 15-LO inhibition, rabbit reticulocyte 15-LO with linoleic acid substrate, HPLC method of Auerbach et al.
Type: biochemical
Details: Table 1; HPLC method; read-out: 15-LO IC50
Listed next: entries and their corresponding IC50.

- compound: "Cc1ccc2[s+]cc3c4ccccc4[nH]c3c2c1 [drawing 19 (R2=H, R3=H, R4=CH3, R5=H, R8=H)]"
  IC50 (µM): 1.9
- compound: "Clc1ccc2[s+]cc3c4ccccc4[nH]c3c2c1 [drawing 19 (R2=H, R3=H, R4=Cl, R5=H, R8=H)]"
  IC50 (µM): 12
- compound: "COc1ccc2[nH]c3c4ccccc4[s+]cc3c2c1"
  IC50 (µM): 0.7
- compound: "COc1ccc2c(c1)[nH]c1c3ccccc3[s+]cc21"
  IC50 (µM): 26
- compound: "COc1ccc2[nH]c3c(c2c1)COc1ccccc1-3"
  IC50 (µM): 4

###

Target: 5-LO enzyme (Homo sapiens, UniProt P09917)
Sequence (P09917 1-674): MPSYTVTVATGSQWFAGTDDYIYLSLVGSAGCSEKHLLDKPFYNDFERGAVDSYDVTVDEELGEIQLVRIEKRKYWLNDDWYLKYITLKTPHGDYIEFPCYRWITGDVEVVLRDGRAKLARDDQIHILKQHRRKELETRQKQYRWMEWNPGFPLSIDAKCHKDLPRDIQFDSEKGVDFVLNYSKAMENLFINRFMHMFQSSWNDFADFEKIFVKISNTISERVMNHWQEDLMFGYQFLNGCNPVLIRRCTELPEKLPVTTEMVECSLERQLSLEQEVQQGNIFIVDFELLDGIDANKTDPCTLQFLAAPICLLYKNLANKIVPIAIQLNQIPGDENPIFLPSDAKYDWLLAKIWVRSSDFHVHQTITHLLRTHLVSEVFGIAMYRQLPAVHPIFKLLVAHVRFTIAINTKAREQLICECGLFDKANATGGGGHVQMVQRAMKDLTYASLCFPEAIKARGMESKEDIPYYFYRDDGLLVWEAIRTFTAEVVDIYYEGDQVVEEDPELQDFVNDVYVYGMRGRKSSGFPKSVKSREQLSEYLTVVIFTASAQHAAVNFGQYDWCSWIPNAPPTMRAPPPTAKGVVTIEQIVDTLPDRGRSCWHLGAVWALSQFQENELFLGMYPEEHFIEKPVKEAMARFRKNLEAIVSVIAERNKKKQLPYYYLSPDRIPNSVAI
Assay: 5-LO enzyme inhibition
Type: biochemical
Settings: Table 4, indoles; read-out: 5-LO IC50
Listed next: entries and their corresponding IC50.

- smiles-repr: "O=C(Nc1cccc(Cl)c1)Sc1c[nH]c2ccccc12"
  IC50: "> 10 µM"
- smiles-repr: "O=C(Cc1c[nH]c2ccccc12)Nc1ccccc1"
  IC50: "> 10 µM"

###

Listed next: entries and their corresponding IC50.
Target: 5-LO enzyme (Homo sapiens)
Assay: 5-LO enzyme inhibition
Type: biochemical
Conditions: Table 2, benzimidazoles; read-out: 5-LO IC50

- compound: "c1csc(-c2csc(-c3nc4ccccc4[nH]3)n2)c1 [drawing 26 (R2=H, R3=H, R10=H, R11=drawing 27)]"
  IC50: "> 10 µM"
- compound: "Clc1ccc2[nH]c(-c3ccccc3)nc2c1"
  IC50: "> 10 µM"
- compound: "Clc1ccc(-c2nc3ccc(Cl)cc3[nH]2)cc1 [2-(4-chlorophenyl)-5-chlorobenzimidazole]"
  IC50: "> 10 µM"

###

Biological target: rabbit reticulocyte 15-LO (Oryctolagus cuniculus, UniProt P12530)
Construct: rabbit reticulocyte 15-LO; from tissue; host or cells: rabbit reticulocytes
Experiment: 15-LO inhibition, rabbit reticulocyte 15-LO with linoleic acid substrate, HPLC method of Auerbach et al.
Assay type: biochemical
Conditions: Table 2, benzimidazoles; read-out: 15-LO IC50
Experimental: Two in vitro assays were utilized, both utilizing rabbit reticulocyte 15-LO, and linoleic acid as substrate, to enzymatically produce a peroxide oxidation product known as 13(S)-HPODE. N-Benzoyl leucomethylene blue was utilized as a calorimetric reagent for detection and quantification of the peroxide formation. Also, HPLC was utilized to quantify the oxidation following incubation at 4° C. for 10 minutes.
observed-property: IC50 (nM)

- compound: "Clc1ccc2[nH]c(-c3ccccc3)nc2c1"
  quantity-unit: "nM"
  test-result: 700
- compound: "Clc1ccc(-c2nc3ccc(Cl)cc3[nH]2)cc1 [2-(4-chlorophenyl)-5-chlorobenzimidazole]"
  quantity-unit: "nM"
  test-result: 650
- compound: "c1csc(-c2csc(-c3nc4ccccc4[nH]3)n2)c1 [drawing 26 (R2=H, R3=H, R10=H, R11=drawing 27)]"
  quantity-unit: "nM"
  test-result: 1500
